Reference for the values: patent US20240279318A1

target: T1, AFP158/HLA-A*02:01 complex (human); assay: SPR, scFv-mIgG2aFc from supernatant captured, complex as analyte
T1 construct: biotinylated on the BSP by BirA for ELISA and panning; also called biotinylated AFP158/HLA-A*02:01 complex; Bio-AFP158
Could you please mark Criterion met for values of Kd below 300 nM and Criterion not met for values at or above it?

# check: Kd < 300 nM for AS179723 VL1g1VH1 scFv-mIgG2aFc (Fc fusion, not shown: a dimerising Fc or GST) scFv: QSVLTQPPSASGTPGQRVTISCSGSSNNIGGNYVNWYQQLPGTAPKLLIYDNKNRPSGVPDRFSGSKSGTSASLAISGLQSEDEADYYCASWDDSLSAVVFGGGTKLTVLGGGGSGGGGSGGGGSEVQLVESGGGLVQPGGSLRLSCAASGFTFLNYAMSWVRQAPGKGLEWVSSNSGAGSTYYSDSVKGRFTISRDNSKNTLYLQMNSLRAEDTAVYYCAKGTNVGSWSSLHYWGQGTLVTVSS
Criterion not met

Confirm or reject: Kd of AS179723 scFv-mIgG2aFc (Fc fusion, not shown: a dimerising Fc or GST, Camel scFv; i647-labelled for flow cytometry) QAGLTQPPSMSGSPRQSVTISCTGSSNNIGGNYVNWYQHLPGTAPKLLIYDNKNRPSGVPEQISGSKSGSSASLTITGLQAEDEGDYYCASWDDSLSAVVFGGGTHLTVLGGGGSGGGGSGGGGSEVQLVESGGGLVQPGGSLRLSCAASGFTFLNYAMSWVRQAPGKGLEWVSSNSGAGSTYYSDSVKGRFTISRDYAKNVVYLQLNSLKTEDTGMYYCAKGTNVGSWSSLHYWGQGTQVTVSS lies strictly below 300 nM
Criterion met

In plain terms, does AS179723 VL1g1VH1g1-N73Y scFv-mIgG2aFc (Fc fusion, not shown: a dimerising Fc or GST, Humanized) QSVLTQPPSASGTPGQRVTISCSGSSNNIGGNYVNWYQQLPGTAPKLLIYDNKNRPSGVPDRFSGSKSGTSASLAISGLQSEDEADYYCASWDDSLSAVVFGGGTKLTVLGGGGSGGGGSGGGGSEVQLVESGGGLVQPGGSLRLSCAASGFTFLNYAMSWVRQAPGKGLEWVSSNSGAGSTYYADSVKGRFTISRDYSKNTLYLQMNSLRAEDTAVYYCAKGTNVGSWSSLHYWGQGTLVTVSS come in under 300 nM for Kd?
Criterion met

Would you kindly verify if Kd of AS179723 VL1VH1 scFv-mIgG2aFc (Fc fusion, not shown: a dimerising Fc or GST) scFv: QSVLTQPPSASGTPGQRVTISCTGSSNNIGGNYVNWYQQLPGTAPKLLIYDNKNRPSGVPDRFSGSKSGTSASLAISGLQSEDEADYYCASWDDSLSAVVFGGGTKLTVLGGGGSGGGGSGGGGSEVQLVESGGGLVQPGGSLRLSCAASGFTFLNYAMSWVRQAPGKGLEWVSSNSGAGSTYYSDSVKGRFTISRDNSKNTLYLQMNSLRAEDTAVYYCAKGTNVGSWSSLHYWGQGTLVTVSS is strictly less than 300 nM?
Criterion not met

Item AS179723 VL1VH1g1 scFv-mIgG2aFc (Fc fusion, not shown: a dimerising Fc or GST) scFv: QSVLTQPPSASGTPGQRVTISCTGSSNNIGGNYVNWYQQLPGTAPKLLIYDNKNRPSGVPDRFSGSKSGTSASLAISGLQSEDEADYYCASWDDSLSAVVFGGGTKLTVLGGGGSGGGGSGGGGSEVQLVESGGGLVQPGGSLRLSCAASGFTFLNYAMSWVRQAPGKGLEWVSSNSGAGSTYYADSVKGRFTISRDNSKNTLYLQMNSLRAEDTAVYYCAKGTNVGSWSSLHYWGQGTLVTVSS : Kd beneath 300 nM, strictly?
Criterion not met

Given AS179723 VL1g1VH1g1 scFv-mIgG2aFc (Fc fusion, not shown: a dimerising Fc or GST) scFv: QSVLTQPPSASGTPGQRVTISCSGSSNNIGGNYVNWYQQLPGTAPKLLIYDNKNRPSGVPDRFSGSKSGTSASLAISGLQSEDEADYYCASWDDSLSAVVFGGGTKLTVLGGGGSGGGGSGGGGSEVQLVESGGGLVQPGGSLRLSCAASGFTFLNYAMSWVRQAPGKGLEWVSSNSGAGSTYYADSVKGRFTISRDNSKNTLYLQMNSLRAEDTAVYYCAKGTNVGSWSSLHYWGQGTLVTVSS , is recorded Kd strictly lower than 300 nM?
Criterion not met
